# EXPERIMENTAL_TARGET: Bacillus anthracis lethal factor protease (Bacillus anthracis)
MEASURED_ATTRIBUTE: Ki (nM)
Provide the reading as a plain figure in nM.

COMPOUND: Cc1cc(C[C@H](CCCCCC(C)C)C(=O)NO)cc(C)c1F
Ki (nM): 2660

**Q:** Supply Ki value. Item: Cc1cc(CNCCCC[C@@H](Cc2cc(C)c(F)c(C)c2)C(=O)NO)ccc1F
**A:** 74

**Q:** Supply Ki value. Item: Cc1cc(C[C@H](CCCCNCCc2ccc(F)cc2)C(=O)NO)cc(C)c1F
**A:** 65

**Q:** Supply Ki value. Item: Cc1cc(CCCCCC[C@@H](Cc2cc(C)c(F)c(C)c2)C(=O)NO)ccc1F
**A:** 10300

**Q:** Supply Ki value. Item: Cc1cc(C[C@H](CCCCNCc2cc3ccccc3s2)C(=O)NO)cc(C)c1F
**A:** 400

* * *

# EXPERIMENTAL_TARGET: Bacillus anthracis lethal factor protease (Bacillus anthracis, UniProt P15917)
# Sequence (P15917 34-809 limits assumed): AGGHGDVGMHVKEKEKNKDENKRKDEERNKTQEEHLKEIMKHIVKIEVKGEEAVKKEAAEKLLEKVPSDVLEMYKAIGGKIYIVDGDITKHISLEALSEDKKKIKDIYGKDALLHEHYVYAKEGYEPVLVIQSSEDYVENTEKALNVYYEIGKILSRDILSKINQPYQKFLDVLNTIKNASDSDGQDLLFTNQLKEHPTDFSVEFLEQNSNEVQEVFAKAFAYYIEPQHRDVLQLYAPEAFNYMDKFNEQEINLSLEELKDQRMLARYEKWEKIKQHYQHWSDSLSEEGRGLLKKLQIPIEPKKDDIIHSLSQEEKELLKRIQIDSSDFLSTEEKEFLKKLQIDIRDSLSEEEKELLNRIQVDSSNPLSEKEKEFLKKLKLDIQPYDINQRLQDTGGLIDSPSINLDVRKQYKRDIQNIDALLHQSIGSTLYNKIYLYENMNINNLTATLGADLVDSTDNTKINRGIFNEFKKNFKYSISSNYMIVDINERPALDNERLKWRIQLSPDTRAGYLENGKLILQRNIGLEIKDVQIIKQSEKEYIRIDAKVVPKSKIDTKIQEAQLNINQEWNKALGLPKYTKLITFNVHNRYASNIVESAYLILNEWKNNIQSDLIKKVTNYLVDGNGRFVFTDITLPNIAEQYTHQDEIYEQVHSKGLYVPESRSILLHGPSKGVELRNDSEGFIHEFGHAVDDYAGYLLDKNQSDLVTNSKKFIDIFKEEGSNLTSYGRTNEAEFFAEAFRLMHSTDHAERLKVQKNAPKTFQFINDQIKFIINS
# METHOD: biochemical
MEASURED_ATTRIBUTE: pKi
# pKi: negative log10 of molar concentration; output just the value

COMPOUND: Cc1cc(CC(C(=O)NO)c2ccc(Br)cc2)cc(C)c1F (stereo not drawn) [Compound 167856]
EXPERIMENTAL_TARGET: Bacillus anthracis lethal factor protease (Bacillus anthracis, UniProt P15917)
MEASURED_ATTRIBUTE: pKi
RECORDED_NUMBER: 6.21

**Q:** Supply pKi value. Item: Cc1cc(CCCN(C)CC[C@@H](Cc2ccc(Cl)cc2)C(=O)NO)cc(C)c1F [Compound 168156]
**A:** 5.48

* * *

# EXPERIMENTAL_TARGET: Bacillus anthracis lethal factor protease (Bacillus anthracis)
MEASURED_ATTRIBUTE: pKi
# pKi: negative log10 of molar concentration; output just the value

COMPOUND_STRUCTURE: Cc1cc(C[C@H](CCCCNCc2ccc3c(c2)OCO3)C(=O)NO)cc(C)c1F
MEASURED_ATTRIBUTE: pKi
RECORDED_NUMBER: 6.66
//
COMPOUND_STRUCTURE: Cc1cc(C[C@H](CCCCNc2ccc(F)cc2)C(=O)NO)cc(C)c1F
MEASURED_ATTRIBUTE: pKi
RECORDED_NUMBER: 5.65
//
COMPOUND_STRUCTURE: Cc1cc(C[C@H](C(=O)NO)c2ccc(Br)cc2)cc(C)c1F
MEASURED_ATTRIBUTE: pKi
RECORDED_NUMBER: 5.24

**Q:** With Bacillus anthracis lethal factor protease (Bacillus anthracis) as the test system, provide measured pKi for this compound: O=C(NO)[C@@H](CCCCNCc1ccc(F)cc1)Cc1ccc(F)c(Cl)c1
**A:** 6.70

* * *

Notes on pKi obtained with Bacillus anthracis lethal factor protease (Bacillus anthracis).
# pKi: negative log10 of molar concentration; output just the value

COMPOUND: Cc1cc(C[C@H](CCCCNCc2ccccc2)C(=O)NO)cc(C)c1F
pKi: 6.89

**Q:** Supply pKi value. Item: Cc1cc(CNCCCC[C@@H](Cc2ccc(F)c(C)c2)C(=O)NO)ccc1F
**A:** 6.55

**Q:** Supply pKi value. Item: Cc1cc(C[C@@H](CCC/C=C/C(C)C)C(=O)NO)cc(C)c1F
**A:** 4.29
